Entry source: ChEMBL document CHEMBL4033668

- testSystem: Cytochrome P450 1B1 (Homo sapiens, UniProt Q16678)
- testSummary: Inhibition of human CYP1B1 expressed in Escherichia coli DH5alpha coexpressing human NADPH P450 reductase using 7-ethoxyresorufin as substrate in presence of NADP+ by fluorimetric analysis
observedProperty: pIC50
Expect pIC50 as a plain number equal to -log10 of the molar concentration.

Requested field: pIC50. Item: c1ccc2c(c1)ccc1cc3c(ccc4ccccc43)cc12
8.05

====

- testSystem: Cytochrome P450 1A1 (Homo sapiens)
- Sequence (P04798 whole entry): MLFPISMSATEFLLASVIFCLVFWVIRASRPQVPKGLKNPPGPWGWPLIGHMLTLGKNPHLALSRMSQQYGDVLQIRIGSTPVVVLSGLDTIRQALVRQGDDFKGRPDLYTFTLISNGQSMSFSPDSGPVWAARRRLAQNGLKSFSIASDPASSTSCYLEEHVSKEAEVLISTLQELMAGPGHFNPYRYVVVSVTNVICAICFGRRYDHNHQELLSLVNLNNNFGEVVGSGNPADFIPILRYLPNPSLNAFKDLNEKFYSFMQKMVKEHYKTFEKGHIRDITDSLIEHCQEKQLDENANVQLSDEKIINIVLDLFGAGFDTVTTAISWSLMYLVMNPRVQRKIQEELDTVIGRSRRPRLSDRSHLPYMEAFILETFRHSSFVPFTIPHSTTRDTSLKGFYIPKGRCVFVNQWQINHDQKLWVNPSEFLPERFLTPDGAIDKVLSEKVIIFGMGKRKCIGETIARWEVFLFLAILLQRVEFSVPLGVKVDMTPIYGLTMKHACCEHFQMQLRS
- testSummary: Inhibition of recombinant human CYP1A1 expressed in Escherichia coli coexpressing human NADPH-cytochrome P450 reductase using 7-ethoxyresorufin as substrate by fluorescence spectrophotometric analysis
- Assay type: ADME
observedProperty: IC50 (µM)
Respond numerically; units are µM and should not be typed.

Requested field: IC50. Item: O=C1c2ccccc2C(=O)c2c(O)c(O)cc(O)c21 [PURPURIN]
5.5

====

- testSystem: Cytochrome P450 1B1 (Homo sapiens)
- Sequence (Q16678 whole entry): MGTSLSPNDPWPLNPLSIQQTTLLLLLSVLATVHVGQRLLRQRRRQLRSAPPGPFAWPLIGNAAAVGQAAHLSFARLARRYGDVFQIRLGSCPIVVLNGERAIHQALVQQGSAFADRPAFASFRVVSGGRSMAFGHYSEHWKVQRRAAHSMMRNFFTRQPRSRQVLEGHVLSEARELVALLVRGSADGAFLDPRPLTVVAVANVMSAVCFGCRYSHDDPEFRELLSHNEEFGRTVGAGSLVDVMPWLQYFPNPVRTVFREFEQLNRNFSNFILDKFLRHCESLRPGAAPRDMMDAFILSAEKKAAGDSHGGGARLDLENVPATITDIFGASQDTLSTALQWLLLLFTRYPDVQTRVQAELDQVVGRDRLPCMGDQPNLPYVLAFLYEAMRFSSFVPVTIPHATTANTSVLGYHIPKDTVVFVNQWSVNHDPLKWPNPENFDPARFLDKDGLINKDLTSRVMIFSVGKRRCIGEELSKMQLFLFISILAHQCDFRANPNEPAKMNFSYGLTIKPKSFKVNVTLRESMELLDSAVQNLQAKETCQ
- testSummary: Inhibition of CYP1B1 in TCDD-exposed human MCF-7 cells using ethoxyresorufin as substrate after 20 mins in presence of NADPH by spectrofluorimetric analysis
observedProperty: pIC50
Expect pIC50 as a plain number equal to -log10 of the molar concentration.

Requested field: pIC50. Item: Br.Cc1ccc(C(=O)Cn2c3c(sc2=N)CCCC3)cc1
7.69

====

- testSystem: Cytochrome P450 1B1 (Homo sapiens)
- testSummary: Inhibition of human CYP1B1 expressed in Escherichia coli DH5alpha coexpressing human NADPH P450 reductase using 7-ethoxyresorufin as substrate in presence of NADPH by fluorimetric analysis
observedProperty: pIC50
Expect pIC50 as a plain number equal to -log10 of the molar concentration.

Requested field: pIC50. Item: C#Cc1cc2ccc3cccc4ccc(c1)c2c34
7.52

====

- testSystem: Cytochrome P450 1A1 (Homo sapiens)
- testSummary: Inhibition of recombinant human CYP1A1 expressed in supersomes using 7-ethoxyresorufin O-deethylation as substrate after 5 mins in presence of NADP+ by spectrofluorimetric analysis
- Type: ADME
observedProperty: pIC50
Expect pIC50 as a plain number equal to -log10 of the molar concentration.

Requested field: pIC50. Item: Cc1cc(Cl)c2c(c1N)C(=O)c1ccccc1C2=O
6.40
